Experiment Notes: HT29 colon tumor cell growth inhibition, primary screen, imaging, high content imaging, 48 h, CellTiter-Glo (AID 771)
Test Parameters: HCS imaging cell count, at 10 µM, stronger effect = higher value
In all, about 3,300 compounds went through this assay and about 55 (2%) were called active. The sample holds actives, similar compounds and a random draw of the others, so the mix is not that of the screen.
Label rule, in plain words: growth inhibition of 50% and up is Met, under 50% is Not met.

*Q* Reported growth inhibition at or above 50%? CCOC(=O)[C@@]1(C#N)[C@@H]2C=CC(C(N)=O)=CN2[C@@H](C(N)=O)[C@@H]1c1cccc(Cl)c1
*A* Not met

*Q* Reported growth inhibition at or above 50%? Cc1c2ccncc2c(C)c2c1[nH]c1ccccc12
*A* Met

*Q* Reported growth inhibition at or above 50%? Nc1c(C(=O)NCc2ccco2)c2nc3ccccc3nc2n1CCN1CCCCC1
*A* Met

*Q* Reported growth inhibition at or above 50%? CCOc1ccc(-n2c(O)c(C=NCCN3CCNCC3)c(=O)[nH]c2=O)cc1
*A* Not met

*Q* Reported growth inhibition at or above 50%? COCCOC(=O)c1c(N)n(Cc2ccco2)c2nc3ccccc3nc12
*A* Not met

*Q* Reported growth inhibition at or above 50%? CN1C[C@H](CNC(=O)OCc2ccccc2)C[C@@H]2c3cccc4c3c(cn4C)C[C@H]21
*A* Met

*Q* Reported growth inhibition at or above 50%? Nc1c(C(=O)NCc2ccco2)c2nc3ccccc3nc2n1Cc1ccc(F)cc1
*A* Not met

*Q* Reported growth inhibition at or above 50%? CC1(C)CC(=O)C(C=NCCN2CCN(C(=O)Cc3ccc(F)cc3)CC2)=C(O)C1
*A* Not met

*Q* Reported growth inhibition at or above 50%? CC1(c2ccccc2)NCCN2C(=O)CSC21 (centres undefined)
*A* Not met

====

Experiment Notes: HT29 colon tumor cell growth inhibition, primary screen, imaging, high content imaging, 48 h, CellTiter-Glo (AID 771)
Test Parameters: HCS imaging cell count, measured here: ATP CellTiter-Glo viability inhibition, at 10 µM, stronger effect = higher value
Screen size: about 3,300 compounds; about 55 (2%) were called active. What follows is part of a selection rich in actives, with near analogues and random picks from the rest.
I'd be grateful if you could share measured growth inhibition for these entries.
# unit: % | format: bare number

Form field growth inhibition, entry CC1(C)CC(=O)C(C=NCCN2CCN(C(=O)Cc3ccc(F)cc3)CC2)=C(O)C1 : 0.25

Form field growth inhibition, entry O=C(Nc1ccncc1)c1c(O)c2ccccc2n(Cc2ccccc2)c1=O : -27.2

Form field growth inhibition, entry CCOC(=O)[C@@]1(C#N)[C@@H]2C=CC(C(N)=O)=CN2[C@@H](C(N)=O)[C@@H]1c1cccc(Cl)c1 : -5.1

Form field growth inhibition, entry CC1(c2ccccc2)NCCN2C(=O)CSC21 (stereo unspecified) : -1.15

Form field growth inhibition, entry Nc1c(C(=O)NCc2ccco2)c2nc3ccccc3nc2n1CCN1CCCCC1 : 86.4

Form field growth inhibition, entry Nc1c(C(=O)NCc2ccco2)c2nc3ccccc3nc2n1Cc1ccc(F)cc1 : 32.2

====

Experiment Notes: HT29 colon tumor cell growth inhibition, primary screen, imaging, high content imaging, 48 h, CellTiter-Glo (AID 771);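 as to condensed nuclei: condensed means Hoechst nuclear area under control median minus 1.5 SD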
Test Parameters: HCS imaging cell count, measured here: percent cells with condensed nuclei, at 10 µM, stronger effect = higher value
Hit rate of the full screen: of about 3,300 compounds, about 55 (2%) were called active. Many of the other results were omitted from the sample, so actives are more common in it than they were.
Label rule, in plain words: condensed nuclei of 4% and up is TRUE, under 4% is FALSE.

*Q* Reported condensed nuclei at or above 4%? Cc1ccc(C)c(C2(O)CC(C)N(C)CC2C)c1 (centres undefined)
*A* FALSE

*Q* Reported condensed nuclei at or above 4%? COc1ccccc1-n1c(O)c(C=NCCCn2ccnc2)c(=O)[nH]c1=O
*A* FALSE

*Q* Reported condensed nuclei at or above 4%? CCOc1ccc(-n2c(O)c(C=NCCN3CCNCC3)c(=O)[nH]c2=O)cc1
*A* FALSE

*Q* Reported condensed nuclei at or above 4%? CCOC(=O)[C@@]1(C#N)[C@@H]2C=CC(C(N)=O)=CN2[C@@H](C(N)=O)[C@@H]1c1cccc(Cl)c1
*A* FALSE

*Q* Reported condensed nuclei at or above 4%? CC1(C)CC(=O)C(C=NCCN2CCN(C(=O)Cc3ccc(F)cc3)CC2)=C(O)C1
*A* FALSE

*Q* Reported condensed nuclei at or above 4%? Nc1c(C(=O)NCc2ccco2)c2nc3ccccc3nc2n1CCN1CCCCC1
*A* TRUE

*Q* Reported condensed nuclei at or above 4%? COCCOC(=O)c1c(N)n(Cc2ccco2)c2nc3ccccc3nc12
*A* FALSE

*Q* Reported condensed nuclei at or above 4%? CN1C[C@H](CNC(=O)OCc2ccccc2)C[C@@H]2c3cccc4c3c(cn4C)C[C@H]21
*A* TRUE

*Q* Reported condensed nuclei at or above 4%? CC1(c2ccccc2)NCCN2C(=O)CSC21 (centres undefined)
*A* FALSE

Where do the numbers come from? From PubChem BioAssay AID771.
